# Target or test system: human D2R/β-arrestin (Homo sapiens (Human))
# Measurement description: Gi/cAMP agonist assay (Lance Ultra cAMP, forskolin)
# Type: cell-based
# Experimental setup: CHO-K1 cells expressing human D2R/β-arrestin; agonist mode, 2.5 μM forskolin
pEC50: −log10 of the molar value.
Measure name: pEC50

- Compound: "COc1cc(F)ccc1OCCN1CCC(C)(Oc2ccc(Cl)cc2)CC1"
  Target or test system: "human D2R/β-arrestin (Homo sapiens (Human))"
  pEC50: "< 4.52"

pEC50 reading for CC1(Oc2ccc(Cl)cc2)CCN(CCn2cccc(C(F)(F)F)c2=O)CC1 : < 4.52

pEC50 reading for CC(=O)c1ccc(OCCN2CCC(C)(Oc3ccc(Cl)cc3)CC2)cc1 : < 4.52

pEC50 reading for FC(F)(F)c1ccccc1OCCN1CCC2(CC1)CCN2c1ccccc1 : < 4.52

###

# Target or test system: human D2R/β-arrestin (Homo sapiens (Human))
# Measurement description: β-arrestin agonist assay (PathHunter)
# Format: cell-based
# Experimental setup: CHO-K1 cells expressing human D2R/β-arrestin; agonist mode
pEC50: −log10 of the molar value.
Measure name: pEC50

Bench note, human D2R/β-arrestin (Homo sapiens (Human)): entry CC1(Oc2ccncc2)CCN(CCOc2ccccc2)C1 (centres unmarked) [Example 59] , its pEC50 = 4.52 to 5.00

Bench note, human D2R/β-arrestin (Homo sapiens (Human)): entry CNCC1(C)CCN(C[C@H]2COc3ccccc3O2)CC1 , its pEC50 = 5.00 to 6.00

Bench note, human D2R/β-arrestin (Homo sapiens (Human)): entry CNC(=O)C1(C)CCN(CCOc2ccccc2C(F)(F)F)CC1 , its pEC50 = < 4.52

Bench note, human D2R/β-arrestin (Homo sapiens (Human)): entry CC1(O)CCN(CC2COc3ccccc3O2)CC1 (centres unmarked) , its pEC50 = 5.00 to 6.00

Bench note, human D2R/β-arrestin (Homo sapiens (Human)): entry CC1(Oc2ccccc2)CCN(C(C)(C)COc2ccccc2C(F)(F)F)CC1 , its pEC50 = < 4.52

###

# Target or test system: human D2R/β-arrestin (Homo sapiens (Human), UniProt P14416)
# Sequence (P14416 whole entry): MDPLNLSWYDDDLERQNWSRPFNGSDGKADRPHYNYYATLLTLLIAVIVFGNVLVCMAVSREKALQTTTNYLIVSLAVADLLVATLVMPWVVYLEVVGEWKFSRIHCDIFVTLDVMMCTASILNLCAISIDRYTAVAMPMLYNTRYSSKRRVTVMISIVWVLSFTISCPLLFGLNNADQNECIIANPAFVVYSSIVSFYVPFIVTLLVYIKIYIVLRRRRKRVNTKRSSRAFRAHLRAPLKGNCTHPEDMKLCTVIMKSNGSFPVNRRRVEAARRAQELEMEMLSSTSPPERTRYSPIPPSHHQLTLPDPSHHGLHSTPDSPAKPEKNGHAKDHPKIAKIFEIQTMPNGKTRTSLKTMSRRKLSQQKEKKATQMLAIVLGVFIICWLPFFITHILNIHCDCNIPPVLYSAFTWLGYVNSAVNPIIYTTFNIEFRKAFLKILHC
# Measurement description: Gi/cAMP agonist assay (Lance Ultra cAMP, forskolin)
# Format: cell-based
# Experimental setup: CHO-K1 cells expressing human D2R/β-arrestin; agonist mode, 2.5 μM forskolin
Catalogue of EC50 values

- Molecule: "FC(F)(F)c1ccccc1OCCN1CCC2(CC1)CC2c1ccc(Cl)cc1 (single isomer, unassigned) [Compound 216a]"
  Result: "> 30 µM"
- Molecule: "CNC(=O)C1(C)CCN(CCOc2ccccc2OC)CC1"
  Result: "> 30 µM"
- Molecule: "CC1(Oc2cccnc2)CCN(CCOc2ccccc2)C1 (stereo not drawn)"
  Result: "< 0.1 µM"
- Molecule: "FC(F)(F)c1ccccc1OCCN1CCC2(CC1)CC2c1ccccc1 (stereo not drawn) [Example 102a]"
  Result: "< 0.1 µM"
- Molecule: "CC1(Oc2ccc(Cl)cc2)CCN(CCCOc2ccccc2)C1 (stereo not drawn)"
  Result: "> 30 µM"

EC50 reading for FC(F)(F)c1ccccc1OCCN1CCC2(CC1)CC2c1ccc(Cl)cc1 (single isomer, unassigned) [Compound 216b] : 10 to 30 µM

EC50 reading for OC1(Cc2ccccc2)CCN(CCOc2ccccc2C(F)(F)F)CC1 : > 30 µM

EC50 reading for COc1ccccc1OCCN1CCC(C)(O)CC1 [Compound 301, reference compound] : > 30 µM

EC50 reading for CC1(Oc2ccc(Cl)cc2)CCN(CCOc2cccnc2)CC1 : < 0.1 µM

###

Catalogue of pEC50 values
# Target or test system: human D2R/β-arrestin (Homo sapiens (Human))
# Measurement description: β-arrestin agonist assay (PathHunter)
# Type: cell-based
# Experimental setup: CHO-K1 cells expressing human D2R/β-arrestin; agonist mode
pEC50: −log10 of the molar value.

Solved entries:
- Compound: "CC1(Oc2ccc(Cl)cc2)CCCN(CCOc2ccc3scnc3c2)C1 (stereo not shown) [Example 99]"
  Measure name: "pEC50"
  Result: "< 4.52"
- Compound: "CNC(=O)C1(C)CCN(CC2COc3ccccc3O2)CC1 (single isomer, unassigned) [Compound 202a]"
  Measure name: "pEC50"
  Result: "< 4.52"
- Compound: "Cc1ccccc1OCCN1CCC(C)(Oc2ccccc2)CC1 [Example 69]"
  Measure name: "pEC50"
  Result: "> 7.00"
- Compound: "CC1(N)CCN(C[C@H]2COc3ccccc3O2)CC1 [Compound 303, reference compound]"
  Measure name: "pEC50"
  Result: "< 4.52"
- Compound: "CC1(Oc2ccc(Cl)cc2)CCN(CCn2cccc(C(F)(F)F)c2=O)CC1 [Compound 195]"
  Measure name: "pEC50"
  Result: "< 4.52"

pEC50 reading for COc1ccccc1OCCN1CCC(C)(Oc2ccc(Cl)cc2)CC1 [Compound 188] : < 4.52

###

# Target or test system: human D2R/β-arrestin (Homo sapiens (Human))
# Measurement description: cell-based
# Experimental setup: β-arrestin Antagonist, CHO-K1 cells expressing human D2R/β-arrestin; antagonist mode, quinpirole 130 nM
Catalogue of IC50 values

Solved entries:
- Compound: "CC1(Oc2ccc(C(F)(F)F)cc2)CCN(CCOc2ccccc2)C1 (stereo not shown)"
  Measure name: "IC50"
  Result: "1000 to 10000 nM"
- Compound: "CN(C)c1ccccc1OCCN1CCC(C)(Oc2ccccc2)CC1"
  Measure name: "IC50"
  Result: "1000 to 10000 nM"
- Compound: "CC1(Oc2cccc(C(F)(F)F)c2)CCCN(CCOc2cc(F)ccc2F)C1 (stereo not shown)"
  Measure name: "IC50"
  Result: "1000 to 10000 nM"
- Compound: "CC1(Oc2ccc(Cl)cc2)CCN(CCOc2ccc(F)cc2)C1 (stereo not shown)"
  Measure name: "IC50"
  Result: "1000 to 10000 nM"
- Compound: "COc1cc(F)c(F)cc1OCCN1CCC(C)(Oc2ccc(Cl)cc2)CC1"
  Measure name: "IC50"
  Result: "1000 to 10000 nM"
- Compound: "CC1(C(=O)NC2CC2)CCN(CC2COc3ccccc3O2)CC1 (stereo not shown) [Compound 203]"
  Measure name: "IC50"
  Result: "100 to 1000 nM"

IC50 reading for COc1ccc(OCCN2CCC(C)(Oc3ccc(Cl)cc3)C2)cc1 (stereo not shown) : 10000 to 30000 nM

IC50 reading for CC1(Oc2ccc(Cl)cc2)CCN(CCOc2ccccc2F)CC1 : > 30000 nM

IC50 reading for CC1(Oc2ccc(Cl)cc2)CCN(CCOc2ccc3ncoc3c2)CC1 : 1000 to 10000 nM

###

# Target or test system: human D2R/β-arrestin (Homo sapiens (Human))
# Measurement description: cell-based
# Experimental setup: cAMP Antagonist, CHO-K1 cells expressing human D2R/β-arrestin; antagonist mode, 2.5 μM forskolin and 2.7 nM quinpirole
Measure name: IC50

Solved entries:
- Compound: "CC1(Oc2ccc(Cl)cc2)CCN(CCOc2ccc3ncccc3c2)C1 (stereo not shown) [Compound 32]"
  Measure name: "IC50"
  Result: "> 30 µM"
- Compound: "CC1(C(=O)Nc2ccccc2)CCN(CCOc2ccccc2C(F)(F)F)CC1 [Compound 219]"
  Measure name: "IC50"
  Result: "0.1 to 1 µM"
- Compound: "CC1(O)CCN(CCOc2ccc(C(F)(F)F)cc2)CC1 [Compound 132]"
  Measure name: "IC50"
  Result: "1 to 10 µM"
- Compound: "CC1(Oc2ccc(Cl)cc2)CCCN(C(C)(C)COc2ccccc2)C1 (stereo not shown) [Example 108]"
  Measure name: "IC50"
  Result: "1 to 10 µM"
- Compound: "CC1(Oc2ccc(Cl)cc2)CCN(CCC(C)(O)c2ccccc2C(F)(F)F)CC1 (stereo not shown) [Compound 117]"
  Measure name: "IC50"
  Result: "1 to 10 µM"

IC50 reading for CC1(Oc2cccc([N+](=O)[O-])c2)CCN(CCOc2ccccc2)C1 (stereo not shown) [Example 40] : > 30 µM

IC50 reading for CC1(Oc2ccc(Cl)cc2)CCN(CCCCOc2ccccc2F)C1 (stereo not shown) [Compound 27] : 0.1 to 1 µM

IC50 reading for CC1(Oc2ccc(Cl)cc2Cl)CCN(CCOc2ccccc2)C1 (stereo not shown) [Example 48] : > 30 µM

###

# Target or test system: human D2R/β-arrestin (Homo sapiens (Human))
# Measurement description: Gi/cAMP agonist assay (Lance Ultra cAMP, forskolin)
# Format: cell-based
# Experimental setup: CHO-K1 cells expressing human D2R/β-arrestin; agonist mode, 2.5 μM forskolin
Measure name: EC50

Solved entries:
- Compound: "CC1(Oc2ccccn2)CCN(CCOc2ccc(C(F)(F)F)cc2)CC1"
  Target or test system: "human D2R/β-arrestin (Homo sapiens (Human))"
  EC50: "0.1 to 1 µM"
- Compound: "Clc1ccc2c(c1)CC1(CCN(CCOc3ccccc3)C1)O2 (stereo not shown)"
  Target or test system: "human D2R/β-arrestin (Homo sapiens (Human))"
  EC50: "> 30 µM"
- Compound: "Clc1ccc2c(c1)C[C@@H]1CN(CCOc3ccccc3)C[C@H]1O2"
  Target or test system: "human D2R/β-arrestin (Homo sapiens (Human))"
  EC50: "> 30 µM"
- Compound: "CC1(Oc2ccc(Cl)cc2)CCN(CCCCOc2ccccc2)C1 (stereo not shown)"
  Target or test system: "human D2R/β-arrestin (Homo sapiens (Human))"
  EC50: "> 30 µM"
- Compound: "CC1(Oc2ccc(Cl)cc2)CCN(CCOc2cccc(-c3ccccc3)c2)C1 (stereo not shown)"
  Target or test system: "human D2R/β-arrestin (Homo sapiens (Human))"
  EC50: "> 30 µM"

EC50 reading for CNCC1(C)CCN(C[C@H]2COc3ccccc3O2)CC1 : 1 to 10 µM

EC50 reading for CN(C)C(=O)C1(C)CCN(C[C@H]2COc3ccccc3O2)CC1 : < 0.1 µM
